Target: recombinant homotrimeric HA, A/Solomon Islands/3/06 H1N1 (Influenza A virus A/Solomon Islands/3/06 (H1N1))
Assay: trimeric HA microarray, transfection set 5
Settings: remark: other sources report otherwise
So I've got a bunch of binders here, and I need their Trimeric HA Binding RLU values.
Give bare numbers, in RLU.

Below, each entry is followed by its recorded Trimeric HA Binding RLU result.
binder | readout_unit | Trimeric HA Binding RLU
TCN-539 (5056_A08) (antibody, V domains shown) VH: QVQLVESGGGVVQPGRSLRLSCAASEITFITYAMHWVRQAPGKGLEWVALISDDGSNKFYADSVKGRFTISRDNSKNTLYLQMNSLRAEDTAAYYCAREGVYFDSGTYRGYFDYWGQETLVTVSS VL: EIVLTQSPATLSLSPGERATLSCRASQSVSSYLAWYQQKPGQAPRLLIYDASNRATGIPARFSGSGSGTDFTLTISSLEPEDFAVYYCQQRSHWPPITFGQGTRLEIK | RLU | 871
TCN-551 (5243_D01) (antibody, V domains shown) VH: EVQLVQSGSEVKKPGESLKISCKGSGYSFSNYWIGWVRHMPGKGLEWMGIIYPGDSDTRYSPSFQGQVTMSADKSSSTVYLQWSSLKASDTAIYYCARRGGHSFGYGSGGDTHSEFDSWGQGTLVTVSS VL: QSVLTQSPSVSAAPGQKVTISCSGSDSNIGDYFVCWYQHLPGKPPQLLIYENNKRPSGIPDRFSGSKSGTSATLGITGIQTGDEADYYCATWDGSLSAWVFGGGTKLTVL | RLU | 43500

Now consider a different binder.
The binder listed as TCN-547 (5092_F11) (antibody, V domains shown) VH: QVQLQESGPGLVKPSQTLSLTCTVSGDSISSVDHYWSWIRQHPVKGLEWIGFMYYSASTYYNPSLKSRVTISTDTSKNQFSLRLSSVTAADTAVYYCARGTCAGDCSLHYYYYGLDVWGQGRTVTVSS VL: DIQMTQSPSSLSASVGDRVTITCRASQSISSYLNWYQHKPGKAPKVLMYAVSILQSGVPSRFSGSGSGADFTLTISSLQPEDFATYYCQQSYSSPLTFGGGTKVEIK has a reported Trimeric HA Binding RLU of 1080
